Test system: TO-N3-2 (biotin conjugate)
Assay: pull-down binding Z-score (relative to library population); higher = stronger binding
Settings: RNA library: Library-2
Collected pull-down binding Z-score values appear next to each entry.
readout: pull-down binding Z-score

entry_sequence	readout	meas_value
GGACCCUCUCUCUACCUCU [hsa-mir-4315-1_4315-2]	pull-down binding Z-score	0.0855
UUCUAAUGCCAAGAA [hsa-mir-1279]	pull-down binding Z-score	-0.306
GUGUACCUUCCUUACCCAGAUCCAUCAAGAAUCCUAGGGGCCGGCUGUUUUGUAGAUGAUAUCGUAAAAACAGAUGGUACAC [SHAPE_invivo_SARS-CoV-2_Multi_39_ComplexLevel_1]	pull-down binding Z-score	0.318
CUUACUGACAAUGUAUACAUUAAAAAUGCAGACAUUGUGGAAG [DMSMaPseq_invitro_SARS-CoV-2_Motif_59]	pull-down binding Z-score	-0.455
AGGUCAAAUCAAUGAUAUGAUUUUAUCU [SHAPE_invitro_SARS-CoV-2_Motif_388]	pull-down binding Z-score	-1.35

====

Tested on: TO-N3 (biotin conjugate)
Test: pull-down binding Z-score (relative to library population); higher = stronger binding
Conditions: RNA library: Library-2

entry_sequence	pull-down binding Z-score
UCUUCUUGGAGUCAGGAAAA [hsa-mir-320d-2]	-0.663
ACUUUCACCAGAGAGCAGAAAGU [hsa-mir-371b]	-0.636
CCUAUACUGUUACUAGAUCAGGCAUUAGUGUCUGAUGUUGGUGAUAGUGCGG [DMSMaPseq_invitro_SARS-CoV-2_Motif_147]	0.0062
UGAAUUAGACUCAUUCA [DMSMaPseq_invitro_SARS-CoV-2_Motif_447]	-0.643
ACCCAGGACUCUUUCAUGACCA [hsa-mir-665]	0.101
AUGGUUAAUGUUCCACAGCCA [hsa-mir-5190]	0.0767
CUUUCUGUGACUUUAAAAGUAAG [hsa-mir-302b]	-0.844
GCACUAUUGCCUUUGGAGGCUGUGUGU [SHAPE_invivo_SARS-CoV-2_Motif_29]	0.415
UGAUGUCACAGAUGUGACUCA	-1.09
GUGUUGGGUAUAAGUAACA [hsa-mir-1270]	0.257
CUGUCCAAGACAUGUGAUCUGCACCUCUGAAGACAUGCUUAACCCUAAUUAUGAAGAUUUACUCAUUCGUAAGUCUAAUCAUAAUUUCUUGGUACAG	-0.347
AGAUCACUUUUCUGCACUGGACAGUGAUCU [hsa-mir-3686]	-0.904
UGGCCAUUUCCUACCA [hsa-mir-617]	-0.908
GACCAGAAAUCAGCCCGAAUGGUU [IAV_invivo_PB1_2_Motif_17+IAV_invivo_PB1_2_Motif_17]	-0.464
CGGAGCCUCGCAGGGUCGGGCUCGGGCUCCCUAACCGUCUCCGCUUCUUC [hsa-mir-6084]	1.36
AGGUGGAAAGGGAGCAGGAGCAUCGUCUUUAAGAGGGUCAGGUACCUUUGCUCUUA [hsa-mir-6083]	0.724
AACAUUUACUUAUGCAUCAGCAUUGUGGGAAAUCCAACAGGUUGUAGAUGCAGAUAGUAAAAUUGUU [DMSMaPseq_invitro_SARS-CoV-2_Motif_222]	-0.126
UGGUACUGAAGAUGAUUACCA [SHAPE_invitro_SARS-CoV-2_Motif_57]	-0.278
GUGCACUUCAUUUACGAUGUAG [hsa-mir-1193]	0.741
GGAAGACCUUAAAUUCCCUCGAGGACAAGGCGUUCC	-0.658
UGGUUGGUUGGUUGGUUGGUUGGU [G4_r(UGGU)6]	6.68
UGUGACCUUCAAAAUUAUGGUGAUAGUGCAACAUUACCUAAAGGCAUAAUGAUGAAUGUCGCA	-0.621
UAAGUGUUAUAGCACUUA [hsa-mir-374a]	-1.38
AAUUAUGAAGAUUUACUCAUUCGUAAGUCUAAUCAUAAUU	-0.429
UGUGUGUACUCACAGCCCCUCACACA [hsa-mir-942]	-0.432
UAUUGGGCCAAUUCCCCCAAUG [hsa-mir-4781]	-1.38
AGCACUUUGUGUUUUGUGAAAGAAAGUGCU [hsa-mir-516b-2]	-0.882
UUUCCCAUUAUUUUAAUUGCGAA [hsa-mir-570]	-0.927
UGAGUGCCGACUGGCGCCUG [hsa-mir-4750]	0.0638
GGUGGAAUUGGACGAUUCUACAUCCAAAUGUGCACC [IAV_invivo_NP_5_Motif_3+IAV_invivo_NP_5_Motif_3]	-0.779
UCCUGGGAAGCAUGGUAGCCAGGA [hsa-mir-5192]	0.319
AUAGAUUAUGUACCACUAAAGUCUGCUACGUGUAUAACACGUUGCAAUUUAGGUGGUGCUGUCUGU	-1.01
UGCACUUGACCCUCUCUCAGAAACAAAGUGUA	0.625
GCGGGGAACGAGGCCGUCGGCCAUUUUGUG [hsa-mir-632]	1.59
GGUUGCUGGAGGUCAGC [hsa-mir-6871]	0.489
GUUGAAAAAUAUCUAUGUAUUAGUAAAC [hsa-mir-649]	-0.151

====

Test system: TO-3-N3 (biotin conjugate)
Assay: pull-down binding Z-score (relative to library population); higher = stronger binding
Settings: RNA library: Library-2
Collected pull-down binding Z-score values appear next to each entry.
readout: pull-down binding Z-score

entry_sequence	meas_value
UGACUACUUCGAAAAUGGGAAGUAGACA [hsa-mir-7849]	0.0977
CUGUUUCUGGUGAAAUAUUCAAACAG [hsa-mir-4433a]	0.27
UGCAUAAAUGAAGCUGAAUGA [hsa-mir-6134]	-0.352
UAAAAUGAAUUAUCAAGUUA [DMSMaPseq_invitro_SARS-CoV-2_Motif_325]	-0.703
GGCACCUACGAUACCCAGUGCC [hsa-mir-3116-2]	-0.264

====

Test system: G-clamp-N3 (biotin conjugate)
Assay: pull-down binding Z-score (relative to library population); higher = stronger binding
Settings: RNA library: Library-1 (pre-miRNA loops + repeats)
readout: pull-down binding Z-score

entry_sequence	meas_value
UGUCUUGUGUCUGUAAGUAU [hsa-mir-1275]	-0.561
UUUAUGCCUGUUAGCAUGAAAAAAGAGGCUGAGAA [hsa-mir-7515]	-0.395
UAUGCAAAGCUCUGACAGUGUUUCACUUGCUA [hsa-mir-7848]	0.148
GGGAUAUUUGCAUUAUACUUAUCC [hsa-mir-5009]	-0.101
GGGAACUGGUGAGUUGUACAUAGAAAUGCUUUCUAACUCC [hsa-mir-4499]	0.204
AUAUGUGUGUAUAUAUGUACACAUAC [hsa-mir-466]	-0.157
UCUUCCCAGAGUCAGGAAAA [hsa-mir-320c-1]	-1.1
UUUGGUAUUACUUUCAGUGGCAAA [hsa-mir-548j]	0.937
UUCACAGACUCUCCAAAAGUCUGAA [hsa-mir-4670]	-1.33
UUUAUGUGAACUAAAAUAUAAA [hsa-mir-513c]	-1.49
AGGUAGUGAUAUGUGCAUCUACU [hsa-mir-17]	-0.805
AAGGGUGUAUGAGAGAUCAACCCUU [hsa-mir-5697]	2.33
CCUGUUUUACAAAUAAGGAAAUAAACUCAGG [hsa-mir-1321]	-1.01
GUCAUUUUUCUGUGACUGCACAUGGC [hsa-mir-3136]	-0.497
CAGUGCUUUUAGAAAAUUUGUGUG [hsa-mir-581]	-0.904
GGAAUCCUACGUGAGGGACAAUCAUUCAGACCCACGUAGCAGUGUUCU [hsa-mir-1299]	0.0519
GGAGAGUAUGGUCACAGCAGCAUCCUCC [hsa-mir-6780a]	0.186
AGGUAGUGUUUAGUUAUCUACU [hsa-mir-20a]	1.28
CUGUUCAGGACUCCCAAAUUGUACAG [hsa-mir-199b]	-0.893
AGGGCAAGUCCAAAGGUAUACAGUUGGUCUGUUCA [hsa-mir-7107]	1.04
CCUGUCCUAUGACAAACAUGGCAGG [hsa-mir-3927]	-0.521

====

Test system: TO-N3 (biotin conjugate)
Test: pull-down binding Z-score (relative to library population); higher = stronger binding
Conditions: RNA library: Library-2
Collected pull-down binding Z-score values appear next to each entry.

entry_sequence	pull-down binding Z-score
UUAUUUGAGAUGAGUUACAUCUUGGAGG [hsa-mir-1204]	-0.0949
CAGGUGACUUUGAUACUUACCUG [U1snRNP5ss-18]	-0.974
CUGCCAUUGAAAGUAAAGGCAA [hsa-mir-548ag-2]	0.608
GAGGCCUCUUGCCAUGGCCUCC [hsa-mir-7113]	-0.406
CUGGCAUUUACGAGUCAGAGUUCUUACAGAGCUGC [hsa-mir-6514]	0.639
AAAAUUACUUUUGGUAAAUACAGUUUU [hsa-mir-559]	-0.344
UCGAGAGGUCAGAGGAUUGCUCCUGA [hsa-mir-5585]	0.496
CUAAGUCACUAACUGAGAAUAAAUAUUCUCAAUUAGAUGAAGAG	-1.15
CGGGCUUAUGUUGCUCG	-0.791
UGAAGUAUUUUGUGAAAAUAGGACCUGAGCGCACCUGUUGUCUAUGUGAUAGACGUGCCACAUGCUUUUCCACUGCUUCA [SHAPE_invitro_SARS-CoV-2_Motif_342]	-0.477
UCUGCCUAUACAGUUGAACUCGGUACAGAAGUAAAUGAGUUCGCCUGUGUUGUGGCAGA [SHAPE_invivo_SARS-CoV-2_Motif_57]	-0.415
UGUUCACGUGGAGAGGAGUUAAACA [hsa-mir-499b]	0.423
GGAAUAAGUAUGAUACUUACCUG [U1snRNP5ss-6]	1.81
GGUGGGUGGGAAGUAAGAUCUGACCUGGACUCCAUCCCACCCACC [hsa-mir-4640]	5.35
UUUGCUAUUUUUUUUUAAUGGCAAA [hsa-mir-548ac]	-1.01
GCGCUGCCAGAAACUGGCCCCAGCGC [bulge-CCC]	-0.283
GGAAGAGACAGGUACGUUAAUAGUUAAUAGCGUACUUCUUUUUC	-0.585
GGAAGAAGGCUGAGGGAGAUGCCUUCUUCC [hsa-mir-6512]	-0.155
CAUACAUAUGCCUACUACUACUUUCAUAUGUAGGCAUAUGUAUG [hsa-mir-7852]	-0.8
UUUGCGUUACUUUCAAUCGUAAA [hsa-mir-548x]	-1.13
GCUUCUGCGUUAUCUGGAAGG [hsa-mir-4706]	-0.25
GCUUCAAGAGAGC	-0.0808
CAGUAUGAAUGAAUUCAUGAUACUG [hsa-mir-3607]	-0.881
CAGCCUUGACAACAGGCUG [hsa-mir-3130-2]	0.391
UUAAAAUAUGACUUCACGGAAGAGAGGUUAAAACUCUUUGACCGUUAUUUUAA [DMSMaPseq_invitro_SARS-CoV-2_Motif_258]	-0.184
CUCAGCCUGGAAAAAGCUGAG [hsa-mir-4765]	-0.672
UCUUAAGAGAGGUGAUAAAAGUGUAUAUUACACUAGUAAUCCUACCACAUUCCACCUAGAUGGUGAAGUUAUCACCUUUGACAAUCUUAAGA	0.528
GCCUUGUGGCAUGGAGUUCAAGC [hsa-mir-107]	0.851
ACAUUAGAUAAUCAAGAUCUCAAUGGUAACUGGUAUGAUUUCGGUGAUUUCAUACAAACCACGCCAGGUAGUGGAGUUCCUGUUGUAGAUUCUUAUUAUUCAUUGU	0.235
AAUGAGUUUUACGCAUAUUUGCGUAAACAUU	-1.36
GCCUGCGGGCAGGAAGCGGA [hsa-mir-3928]	1.87
CUUUACCAACCACCACAAACCUCUAUCACCUCAGCUGUUUUGCAGAGUGGUUUUAGAAAAAUGGCAUUCCCAUCUGGUAAAG	-0.0807

Where these numbers come from: the supplement of paper PMC11865577
